Listed here: items and their measured IC50.
- tested_system: human Cot/Tpl2 kinase (Homo sapiens, UniProt P41279)
- Construct: human Cot/Tpl2 kinase construct encoding residues 30-398; 6His (N); made in house; host or cells: Sf9 insect cells, baculovirus system (BD Biosciences)
- Sequence (P41279 30-398): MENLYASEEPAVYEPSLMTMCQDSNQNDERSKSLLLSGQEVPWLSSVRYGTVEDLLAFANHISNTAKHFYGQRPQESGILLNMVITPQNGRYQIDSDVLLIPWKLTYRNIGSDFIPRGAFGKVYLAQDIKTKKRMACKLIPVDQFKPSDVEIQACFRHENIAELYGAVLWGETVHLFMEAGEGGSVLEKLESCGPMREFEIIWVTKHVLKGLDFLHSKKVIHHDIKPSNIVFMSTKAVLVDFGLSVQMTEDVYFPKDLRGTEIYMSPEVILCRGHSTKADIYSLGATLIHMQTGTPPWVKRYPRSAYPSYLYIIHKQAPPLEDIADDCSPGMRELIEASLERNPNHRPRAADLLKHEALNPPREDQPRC
- experimental_details: Tpl2/Cot kinase assay: GST-MEK1 phosphorylation detected by ELISA (DELFIA Eu)
- Format: biochemical
- experimental_conditions: Tpl2/Cot kinase, GST-MEK1 substrate, 50 uM ATP
Answer by giving the amount and then stating its unit.

Some compounds with known IC50 results, for comparison:
[
  {
    "chemical_structure": "COCCNC(=O)Cn1cc(CNc2cc(Cl)c3ncc(C#N)c(Nc4ccc(F)c(Cl)c4)c3c2)nn1",
    "measure_name": "IC50",
    "recorded_value": "15 nM"
  },
  {
    "chemical_structure": "N#Cc1cnc2c(Br)cc(NCc3cnc4ccccn34)cc2c1Nc1ccc(F)c(Cl)c1",
    "measure_name": "IC50",
    "recorded_value": "280 nM"
  }
]

Inquiry: State the recorded IC50 for this entry: `CC(C)(C)OC(=O)N1CCCN(CCCn2cc(CNc3cc(Br)c4ncc(C#N)c(Nc5ccc(F)c(Cl)c5)c4c3)nn2)CC1`
Reply text: 520 nM

Inquiry: Lookup `CCNC(=O)N1CCC[C@H]1Cn1cc(CNc2cc(Cl)c3ncc(C#N)c(Nc4ccc(F)c(Cl)c4)c3c2)nn1`
Reply text: 0.5 nM

----------
- tested_system: human Cot/Tpl2 kinase (Homo sapiens)
- Construct: human Cot/Tpl2 kinase construct encoding residues 30-398; 6His (N); made in house; host or cells: Sf9 insect cells, baculovirus system (BD Biosciences)
- experimental_details: Tpl2/Cot kinase assay: GST-MEK1 phosphorylation detected by ELISA (DELFIA Eu)
- Format: biochemical
- experimental_conditions: Table 2; Tpl2/Cot kinase, GST-MEK1 substrate, 50 uM ATP
measure_name: log10 IC50 (log10 of the value in nM)
Quick note: numbers are log10 of IC50, with nM as the unit.

Some compounds with known log10 IC50 results, for comparison:
[
  {
    "compound": "N#Cc1cnc2c(Br)cc(NCc3cc(C4CCNCC4)n[nH]3)cc2c1Nc1ccc(F)c(Cl)c1 [Example 537]",
    "log10 IC50": 2.90
  },
  {
    "compound": "N#Cc1cnc2c(Cl)cc(NCc3cn(-c4cc[n+]([O-])cc4)nn3)cc2c1Nc1ccc(F)c(Cl)c1 [Example 576]",
    "log10 IC50": 1.20
  },
  {
    "compound": "N#Cc1cnc2c(Cl)cc(NCc3cn(CC4CCCCC4)nn3)cc2c1Nc1ccc(F)c(Cl)c1 [Example 585]",
    "log10 IC50": 2.90
  },
  {
    "compound": "CN(C)C(=O)Cn1cc(CNc2cc(Cl)c3ncc(C#N)c(Nc4ccc(F)c(Cl)c4)c3c2)nn1 [Example 613]",
    "log10 IC50": -0.27
  },
  {
    "compound": "N#Cc1cnc2c(I)cc(NCc3cnc[nH]3)cc2c1Nc1ccc(F)c(Cl)c1 [Example 452]",
    "log10 IC50": 1.71
  },
  {
    "compound": "N#Cc1cnc2c(Cl)cc(NCC(=O)NCc3cccnc3)cc2c1Nc1ccc(F)c(Cl)c1 [Example 598]",
    "log10 IC50": 2.30
  },
  {
    "compound": "N#Cc1cnc2c(Cl)cc(NCc3cn(CC(F)(F)F)nn3)cc2c1Nc1ccc(F)c(Cl)c1 [Example 491]",
    "log10 IC50": 1.36
  },
  {
    "compound": "N#Cc1cnc2c(Br)cc(N)cc2c1Nc1ccc(F)c(Cl)c1 [Example 393]",
    "log10 IC50": 2.72
  }
]

Turning now to a further compound:
Inquiry: Request - read-out log10 IC50 | tested on human Cot/Tpl2 kinase (Homo sapiens) | compound N#Cc1cnc2c(Br)cc(NCc3cc([C@@H]4CCCN4)n[nH]3)cc2c1Nc1ccc(F)c(Cl)c1 [Example 555]
Reply text: 2.52

----------
- tested_system: human Cot/Tpl2 kinase (Homo sapiens)
- Construct: human Cot/Tpl2 kinase construct encoding residues 30-398; 6His (N); made in house; host or cells: Sf9 insect cells, baculovirus system (BD Biosciences)
- experimental_details: Tpl2/Cot kinase assay: GST-MEK1 phosphorylation detected by ELISA (DELFIA Eu)
- Format: biochemical
- experimental_conditions: 0.4 nM Tpl2, 35 nM GST-MEK1, 50 uM ATP, 1 h at 30° C.
measure_name: IC50 (nM)
Express it in nM; write the number only.

Some compounds with known IC50 results, for comparison:
[
  {
    "compound": "CN(C)C(=O)c1cc(NCc2ccn[nH]2)cc2c(Nc3ccc(F)c(Cl)c3)c(C#N)cnc12 [Example 89]",
    "tested_system": "human Cot/Tpl2 kinase (Homo sapiens)",
    "IC50, nM": 290
  },
  {
    "compound": "COc1ccc(Cn2cc(CNc3cc(Br)c4ncc(C#N)c(Nc5ccc(F)c(Cl)c5)c4c3)nn2)cc1 [Example 289]",
    "tested_system": "human Cot/Tpl2 kinase (Homo sapiens)",
    "IC50, nM": 203
  },
  {
    "compound": "N#Cc1cnc2c(Cl)cc(NCc3cc4n(n3)CCC4)cc2c1Nc1ccc(F)c(Cl)c1 [Example 189]",
    "tested_system": "human Cot/Tpl2 kinase (Homo sapiens)",
    "IC50, nM": 100
  }
]

Turning now to a further compound:
Inquiry: Request - read-out IC50 | tested on human Cot/Tpl2 kinase (Homo sapiens) | compound N#Cc1cnc2ccc(NC3CCCC3c3ccccn3)cc2c1Nc1ccc(F)c(Cl)c1 (stereo not shown) [Example 256]
Reply text: 310

----------
Listed here: items and their measured pIC50.
- tested_system: human Cot/Tpl2 kinase (Homo sapiens, UniProt P41279)
- Construct: human Cot/Tpl2 kinase construct encoding residues 30-398; 6His (N); made in house; host or cells: Sf9 insect cells, baculovirus system (BD Biosciences)
- experimental_details: Tpl2/Cot kinase assay: GST-MEK1 phosphorylation detected by ELISA (DELFIA Eu)
- Type: biochemical
- experimental_conditions: 0.4 nM Tpl2, 35 nM GST-MEK1, 50 uM ATP, 1 h at 30° C.
pIC50 here: minus log base 10 of the concentration, concentration in moles per litre.

Some compounds with known pIC50 results, for comparison:
[
  {
    "compound": "CN(C)C(=O)c1cc(NCC2CCCCC2)cc2c(Nc3ccc(F)c(Cl)c3)c(C#N)cnc12 [Example 82]",
    "pIC50": 5.41
  },
  {
    "compound": "N#Cc1cnc2ccc(NCCN3CCOCC3)cc2c1NC1CCCCCC1 [Example 252]",
    "pIC50": 5.21
  },
  {
    "compound": "N#Cc1cnc2ccc(NCc3cccc(F)c3)cc2c1Nc1ccc(F)c(Cl)c1 [Example 145]",
    "pIC50": 5.68
  },
  {
    "compound": "COCCOc1ccc(CNc2ccc3ncc(C#N)c(Nc4ccc(F)c(Cl)c4)c3c2)cc1C#N [Example 25]",
    "pIC50": 7.09
  },
  {
    "compound": "COC(=O)c1nc[nH]c1CNc1cc(Br)c2ncc(C#N)c(Nc3ccc(F)c(Cl)c3)c2c1 [Example 110]",
    "pIC50": 7.06
  },
  {
    "compound": "N#Cc1cnc2c(Br)cc(NCc3nn[nH]c3-c3ccccc3F)cc2c1Nc1ccc(F)c(Cl)c1 [Example 118]",
    "pIC50": 6.96
  },
  {
    "compound": "N#Cc1cnc2c(Cl)cc(NCc3nnn[nH]3)cc2c1Nc1ccc(F)c(Cl)c1 [Example 279]",
    "pIC50": 8.59
  }
]

Inquiry: State the recorded pIC50 for this entry: Cn1c(CNc2ccc3ncc(C#N)c(Nc4ccc(F)c(Cl)c4)c3c2)nc2ccccc21 [Example 7]
Reply text: 7.74

----------
- tested_system: human Cot/Tpl2 kinase (Homo sapiens, UniProt P41279)
- Construct: human Cot/Tpl2 kinase construct encoding residues 30-398; 6His (N); made in house; host or cells: Sf9 insect cells, baculovirus system (BD Biosciences)
- experimental_details: Tpl2/Cot kinase assay: GST-MEK1 phosphorylation detected by ELISA (DELFIA Eu)
- Format: biochemical
- experimental_conditions: Tpl2/Cot kinase, GST-MEK1 substrate, 50 uM ATP
- Procedure: Sf9 cells expressing the kinase were lysed in 50 mM NaPhosphate pH=8; 300 mM NaCl; 5 mM imidazole; 0.1 mM EGTA; 25 mM beta-glycerophosphate; 1% TX-100, 1% glycerol; 6 mM beta-mercaptoethanol and protease inhibitors. […] Tpl2/Cot activity was directly assayed using GST-MEK1 as a substrate. GST-MEK1 phosphorylation on serine residues 217 and 221 was detected by ELISA. […] After a final wash, Eu detection solution was added to each well and the Eu signal was measured in a Wallac Victor^2 Multilabel Counter. […]
Please use true (1) for IC50 under 200 nM and false (0) for everything else, ties included.

[
  {
    "compound": "CCN1CCC(Cn2cc(CNc3cc(Br)c4ncc(C#N)c(Nc5ccc(F)c(Cl)c5)c4c3)nn2)CC1",
    "class_assignment": "true (1)"
  },
  {
    "compound": "CN1CCCN(CCCn2cc(CNc3cc(Cl)c4ncc(C#N)c(Nc5ccc(F)c(Cl)c5)c4c3)nn2)CC1",
    "class_assignment": "true (1)"
  },
  {
    "compound": "C[S+]([O-])Cn1cc(CNc2cc(Br)c3ncc(C#N)c(Nc4ccc(F)c(Cl)c4)c3c2)nn1 (stereo not drawn)",
    "class_assignment": "true (1)"
  },
  {
    "compound": "CNCCn1cc(CNc2cc(Br)c3ncc(C#N)c(Nc4ccc(F)c(Cl)c4)c3c2)nn1",
    "class_assignment": "true (1)"
  },
  {
    "compound": "CC(C)NC(=O)Cn1cc(CNc2cc(Cl)c3ncc(C#N)c(Nc4ccc(F)c(Cl)c4)c3c2)nn1",
    "class_assignment": "true (1)"
  },
  {
    "compound": "CN1CCCC1CCn1cnc(CNc2cc(Br)c3ncc(C#N)c(Nc4ccc(F)c(Cl)c4)c3c2)c1 (stereo not drawn)",
    "class_assignment": "true (1)"
  },
  {
    "compound": "CC(C)CN(CCCn1cc(CNc2cc(Cl)c3ncc(C#N)c(Nc4ccc(F)c(Cl)c4)c3c2)nn1)CC(C)C",
    "class_assignment": "true (1)"
  },
  {
    "compound": "N#Cc1cnc2c(Cl)cc(C(=O)O)cc2c1Nc1ccc(F)c(Cl)c1",
    "class_assignment": "false (0)"
  },
  {
    "compound": "CCN1CC(CCn2cc(CNc3cc(Cl)c4ncc(C#N)c(Nc5ccc(F)c(Cl)c5)c4c3)nn2)N(c2ccccc2)C1=O (stereo not drawn)",
    "class_assignment": "true (1)"
  },
  {
    "compound": "CC(=O)NCCCn1cc(CNc2cc(Cl)c3ncc(C#N)c(Nc4ccc(F)c(Cl)c4)c3c2)nn1",
    "class_assignment": "true (1)"
  }
]

Inquiry: # check: IC50 < 200 nM for `N#Cc1cnc2c(Br)cc(NCc3cn(C4CCCC4)cn3)cc2c1Nc1ccc(F)c(Cl)c1`
Reply text: false (0)

Inquiry: Lookup `N#Cc1cnc2c(Cl)cc(NCc3cn(Cc4ccncc4)cn3)cc2c1Nc1ccc(F)c(Cl)c1`
Reply text: true (1)

Inquiry: Lookup CC(=O)N1CCCCC1CNc1cc(Cl)c2ncc(C#N)c(Nc3ccc(F)c(Cl)c3)c2c1 (stereo not drawn)
Reply text: false (0)

Inquiry: Lookup `N#Cc1cnc2c(Cl)cc(NC3CCN(Cc4cccnc4)CC3)cc2c1Nc1ccc(F)c(Cl)c1`
Reply text: false (0)

Inquiry: Lookup `CC(=O)N(CCNc1cc(Cl)c2ncc(C#N)c(Nc3ccc(F)c(Cl)c3)c2c1)Cc1ccccn1`
Reply text: true (1)
